Test: Clearance in fasted Wistar rat at 10 mg/kg, iv
Format: ADME, organism-based
Design: dose 10 mg/kg, route intravenous
Details: in vivo
Property: clearance (mL/min/kg)
Express it in mL/min/kg; write the number only.

So for CCN1CCN(Cc2ccc3c(ccn3S(=O)(=O)c3ccccc3Br)c2)CC1 , the logged clearance turned out to be 120

---

Test: Oral bioavailability in fasted Wistar rat
Type: ADME, organism-based
Conditions: in vivo
Property: bioavailability (%)
Please respond with the number in % and leave the unit unwritten.

Per the record, CCN1CCN(Cc2ccc3c(ccn3S(=O)(=O)c3ccccc3Br)c2)CC1 has bioavailability of 4.2

---

Biological target: CYP2A6 (Homo sapiens, UniProt P11509)
Sequence (P11509 whole entry): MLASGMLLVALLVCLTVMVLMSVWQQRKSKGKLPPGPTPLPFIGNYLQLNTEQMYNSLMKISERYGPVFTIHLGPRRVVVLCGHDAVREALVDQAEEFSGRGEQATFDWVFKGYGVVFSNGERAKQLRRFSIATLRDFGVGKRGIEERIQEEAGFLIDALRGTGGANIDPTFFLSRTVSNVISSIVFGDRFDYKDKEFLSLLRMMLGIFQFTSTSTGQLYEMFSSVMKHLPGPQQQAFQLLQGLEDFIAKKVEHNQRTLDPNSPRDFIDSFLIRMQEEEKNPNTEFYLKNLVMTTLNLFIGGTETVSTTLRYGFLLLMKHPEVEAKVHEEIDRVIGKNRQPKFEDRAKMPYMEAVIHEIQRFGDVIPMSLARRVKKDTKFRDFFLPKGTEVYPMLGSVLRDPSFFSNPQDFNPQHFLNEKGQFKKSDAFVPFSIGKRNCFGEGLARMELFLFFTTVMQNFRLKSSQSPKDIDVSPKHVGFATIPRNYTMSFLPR
Assay: Inhibition of human CYP2A6 at 3 uM
Format: ADME
Property: inhibition at 3 µM (%)
Provide the reading as a plain figure in %.

Form: compound = CCN1CCN(Cc2ccc3c(ccn3S(=O)(=O)c3ccc(F)cc3)c2)CC1 ; inhibition at 3 µM = -7.74

According to the records, this compound CN1CCN(Cc2ccc3c(ccn3S(=O)(=O)c3ccccc3)c2)CC1 displays inhibition at 3 µM of -2.24

The value of inhibition at 3 µM measured for the compound O=S(=O)(c1ccc(F)cc1F)n1cc(Cl)c2cc(CN3CCNCC3)ccc21 turned out to be -3.62

So, CCN1CCN(Cc2ccc3c(ccn3S(=O)(=O)c3ccc(C(C)C)cc3)c2)CC1 ? Its inhibition at 3 µM was -1.26

Lookup result for CN1CCN(Cc2ccc3c(c2)c(Cl)cn3S(=O)(=O)c2ccc(F)cc2)CC1 ; measured inhibition at 3 µM: 14.1

Sample CCN1CCN(Cc2ccc3c(ccn3S(=O)(=O)c3ccccc3Br)c2)CC1 ; inhibition at 3 µM observed: -0.39

---

Target: CYP3A4 (Homo sapiens)
Sequence (P08684 whole entry): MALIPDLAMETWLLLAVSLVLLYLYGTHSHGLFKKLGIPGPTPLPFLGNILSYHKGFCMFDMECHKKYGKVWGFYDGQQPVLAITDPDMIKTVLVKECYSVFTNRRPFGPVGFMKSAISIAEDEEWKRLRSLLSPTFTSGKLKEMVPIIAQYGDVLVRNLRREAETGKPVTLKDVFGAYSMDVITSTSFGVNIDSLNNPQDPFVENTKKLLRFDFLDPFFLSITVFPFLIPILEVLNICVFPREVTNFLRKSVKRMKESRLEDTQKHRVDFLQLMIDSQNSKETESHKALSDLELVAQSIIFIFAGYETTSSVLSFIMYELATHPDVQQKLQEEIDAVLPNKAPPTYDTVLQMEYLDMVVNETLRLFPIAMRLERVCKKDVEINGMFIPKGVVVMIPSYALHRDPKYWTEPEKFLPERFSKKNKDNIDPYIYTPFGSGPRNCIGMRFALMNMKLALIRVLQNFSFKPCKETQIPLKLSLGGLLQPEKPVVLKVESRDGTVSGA
Assay: Inhibition of human CYP3A4 at 3 uM
Format: ADME
Property: inhibition at 3 µM (%)
The reply should contain only the number, in %.

Reported inhibition at 3 µM ( O=S(=O)(c1ccc(F)cc1F)n1cc(Cl)c2cc(CN3CCNCC3)ccc21 ) = 26.4

Quick note, inhibition at 3 µM for CCN1CCN(Cc2ccc3c(ccn3S(=O)(=O)c3ccccc3Br)c2)CC1 landed at -3.67

Query CN1CCN(Cc2ccc3c(ccn3S(=O)(=O)c3ccccc3)c2)CC1 yields inhibition at 3 µM of 8.24

Input CCN1CCN(Cc2ccc3c(ccn3S(=O)(=O)c3ccc(F)cc3)c2)CC1 . Output inhibition at 3 µM: 18.6

Given item CCN1CCN(Cc2ccc3c(ccn3S(=O)(=O)c3ccc(C(C)C)cc3)c2)CC1 , the value recorded as its inhibition at 3 µM is 30.5

// sample CN1CCN(Cc2ccc3c(c2)c(Cl)cn3S(=O)(=O)c2ccc(F)cc2)CC1 , its inhibition at 3 µM was 2.6

---

Molecular target: CYP2C19 (Homo sapiens)
Sequence (P33261 whole entry): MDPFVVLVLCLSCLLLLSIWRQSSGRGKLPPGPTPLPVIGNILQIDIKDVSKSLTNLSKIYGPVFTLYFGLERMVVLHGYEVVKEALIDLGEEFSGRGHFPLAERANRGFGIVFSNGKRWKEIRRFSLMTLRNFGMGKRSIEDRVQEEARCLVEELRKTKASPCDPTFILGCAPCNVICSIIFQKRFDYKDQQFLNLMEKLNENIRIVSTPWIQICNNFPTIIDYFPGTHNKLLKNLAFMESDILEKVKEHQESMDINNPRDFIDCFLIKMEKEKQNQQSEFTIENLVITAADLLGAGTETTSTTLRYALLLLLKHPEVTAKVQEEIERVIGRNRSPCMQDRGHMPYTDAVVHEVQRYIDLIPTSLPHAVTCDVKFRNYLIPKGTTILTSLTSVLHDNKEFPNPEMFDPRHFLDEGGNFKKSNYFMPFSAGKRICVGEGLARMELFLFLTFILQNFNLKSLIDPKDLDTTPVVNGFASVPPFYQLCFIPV
Test: Inhibition of human CYP2C19 at 3 uM
Format: ADME
Quick rule for you: inhibition at 3 µM at 10% or higher means YES, lower means NO.

QUERY: Exam item: decide whether the reported inhibition at 3 µM for O=S(=O)(c1ccc(F)cc1F)n1cc(Cl)c2cc(CN3CCNCC3)ccc21 is at least 10%.
RESULT: YES

QUERY: API: above_or_equal(metric=inhibition at 3 µM, cutoff=10%) for item CCN1CCN(Cc2ccc3c(ccn3S(=O)(=O)c3ccccc3Br)c2)CC1
RESULT: YES

QUERY: API: above_or_equal(metric=inhibition at 3 µM, cutoff=10%) for item CCN1CCN(Cc2ccc3c(ccn3S(=O)(=O)c3ccc(F)cc3)c2)CC1
RESULT: NO

QUERY: For this compound, is measured inhibition at 3 µM 10% or higher? CCN1CCN(Cc2ccc3c(ccn3S(=O)(=O)c3ccc(C(C)C)cc3)c2)CC1
RESULT: YES
